seminal vesicles weight % relative to intact control group by entry:
System: castrated male rats
Assay: Efficacy test in castrated male rat (Hershberger assay)
Format: in vivo, SD (Sprague-Dawley) rat
Conditions: castrated male SD rats, oral once a day for 14 days, 10 mg/kg
API: value field is a number in %; no unit string.

// worked examples, seminal vesicles weight % relative to intact control group included
- chem_smiles: "N#Cc1ccc(OC[C@@H]2CN(c3ccc(C#N)c(C(F)(F)F)c3)[C@@H](C(F)(F)F)O2)cc1"
  unit_text: "%"
  numeric_value: 22.9
- chem_smiles: "COC(=O)Nc1ccc(OC[C@@H]2CN(c3ccc(C#N)c(C(F)(F)F)c3)[C@@H](C(F)(F)F)O2)cc1"
  unit_text: "%"
  numeric_value: 4.7
- chem_smiles: "N#Cc1ccc(OC[C@@H]2CN(c3ccc(C#N)c(C(F)(F)F)c3)[C@@H](C(F)(F)F)O2)cn1"
  unit_text: "%"
  numeric_value: 46.1

[ask] # lookup: seminal vesicles weight % relative to intact control group of `COC(=O)N1CCN(C(=O)[C@@H]2CN(c3ccc(C#N)c(C(F)(F)F)c3)[C@@H](C(F)(F)F)O2)CC1`
[reply] 34.5

----------
log10 of EC50 by entry:
Molecular target: UniProt P10275
Test: Test of transcriptional activity (hAR / ARE-Luc dual-luciferase assay in CHO cells)
Format: cell-based
Conditions: EC50 [nM] (mean ± SE), CHO cells with hAR and ARE-Luc, 24 hours; 10 nM DHT = 100%
Reminder: these figures are log10 of reported EC50, in nM before transformation.

- compound: "N#Cc1ccc(N2C[C@@H](COc3ccc(/C=N/O)cc3[N+](=O)[O-])O[C@@H]2C(F)(F)F)cc1C(F)(F)F"
  log10 of EC50: 0.46

// next item, log10 of EC50 requested
[ask] # lookup: log10 of EC50 of `N#Cc1ccc(OC[C@@H]2CN(c3ccc(C#N)c(C(F)(F)F)c3)[C@H](C(F)(F)F)O2)cn1`
[reply] 1.64

----------
log10 EC50 by entry:
Target: UniProtKB P10275
Assay: Test of transcriptional activity (hAR / ARE-Luc dual-luciferase assay in CHO cells)
Format: cell-based
Details: EC50 [nM] (mean ± SE), CHO cells with hAR and ARE-Luc, 24 hours; 10 nM DHT = 100%
Structures can show the parent of a compound that is named as a salt.
Reminder: these figures are log10 of reported EC50, in nM before transformation.

// worked examples, log10 EC50 included
- molecule: "N#Cc1ccc(N2C[C@@H](COc3ccc(C(F)(F)F)cc3)O[C@@H]2C(F)(F)F)cc1C(F)(F)F"
  log10 EC50: 1.50
- molecule: "Cc1c(N2C[C@@H](COc3ccncc3)O[C@@H]2C(F)(F)F)ccc(C#N)c1Cl"
  log10 EC50: 1.34
- molecule: "CCC(=O)Nc1ccc(NC(=O)[C@@H]2CN(c3ccc(C#N)c(C(F)(F)F)c3)[C@@H](C(F)(F)F)O2)cc1"
  log10 EC50: 1.10
- molecule: "N#Cc1ccc(OC[C@@H]2CN(c3ccc(C#N)c(C(F)(F)F)c3)[C@@H](C(F)(F)F)O2)c(F)c1"
  log10 EC50: 0.65

[ask] Under UniProtKB P10275: log10 EC50 value of N#Cc1ccc(N2C[C@@H](C(=O)N3CCC(N)CC3)O[C@@H]2C(F)(F)F)cc1C(F)(F)F [Example 175, hydrochloride] ?
[reply] 1.93

[ask] Continue with `COC(=O)Nc1ccc(OC[C@@H]2CN(c3ccc(C#N)c(C(F)(F)F)c3)[C@@H](C(F)(F)F)O2)cc1`
[reply] 0.91

[ask] Continue with `N#Cc1ccc(N2C[C@@H](COc3ccc(-c4nnco4)cc3)O[C@@H]2C(F)(F)F)cc1C(F)(F)F`
[reply] 1.27

----------
Test system: castrated male rats
Assay: Efficacy test in castrated male rat (Hershberger assay)
Format: in vivo, SD (Sprague-Dawley) rat
Settings: castrated male SD rats, oral once a day for 14 days, 3 mg/kg
seminal vesicles weight % relative to intact control group by entry:
API: value field is a number in %; no unit string.

// worked examples, seminal vesicles weight % relative to intact control group included
- compound: "N#Cc1ccc(OC[C@@H]2CN(c3ccc(C#N)c(C(F)(F)F)c3)[C@@H](C(F)(F)F)O2)cc1 [Example 19]"
  tgt: "castrated male rats"
  unit_text: "%"
  numeric_value: 17.3
- compound: "CC(=O)Nc1ccc(OC[C@@H]2CN(c3ccc(C#N)c(C(F)(F)F)c3)[C@@H](C(F)(F)F)O2)cc1 [Example 25]"
  tgt: "castrated male rats"
  unit_text: "%"
  numeric_value: 8.7
- compound: "N#Cc1ccc(OC[C@@H]2CN(c3ccc(C#N)c(C(F)(F)F)c3)[C@@H](C(F)(F)F)O2)cn1 [Example 44]"
  tgt: "castrated male rats"
  unit_text: "%"
  numeric_value: 54.5
- compound: "COC(=O)N1CCN(C(=O)[C@@H]2CN(c3ccc(C#N)c(C(F)(F)F)c3)[C@@H](C(F)(F)F)O2)CC1 [Example 173]"
  tgt: "castrated male rats"
  unit_text: "%"
  numeric_value: 20.3

[ask] Under castrated male rats: seminal vesicles weight % relative to intact control group value of COC(=O)Nc1ccc(OC[C@@H]2CN(c3ccc(C#N)c(C(F)(F)F)c3)[C@@H](C(F)(F)F)O2)cc1 [Example 36] ?
[reply] 3.0

----------
levator ani muscle weight % relative to intact control group by entry:
System: castrated male rats
Assay: Efficacy test in castrated male rat (Hershberger assay)
Type: in vivo, SD (Sprague-Dawley) rat
Conditions: castrated male SD rats, oral once a day for 14 days, 0.3 mg/kg

[ask] # lookup: levator ani muscle weight % relative to intact control group of `CC(=O)Nc1ccc(OC[C@@H]2CN(c3ccc(C#N)c(C(F)(F)F)c3)[C@@H](C(F)(F)F)O2)cc1`
[reply] 38.5 ± 4.8%

----------
Test system: castrated male rats
Test: Efficacy test in castrated male rat (Hershberger assay)
Type: in vivo, SD (Sprague-Dawley) rat
Settings: castrated male SD rats, oral once a day for 14 days, 100 mg/kg
levator ani muscle weight % relative to intact control group by entry:
API: value field is a number in %; no unit string.

// worked examples, levator ani muscle weight % relative to intact control group included
- compound: "N#Cc1ccc(OC[C@@H]2CN(c3ccc(C#N)c(C(F)(F)F)c3)[C@@H](C(F)(F)F)O2)cn1 [Example 44]"
  numeric_value: 90.5
- compound: "COC(=O)Nc1ccc(OC[C@@H]2CN(c3ccc(C#N)c(C(F)(F)F)c3)[C@@H](C(F)(F)F)O2)cc1 [Example 36]"
  numeric_value: 65.3
- compound: "COC(=O)N1CCN(C(=O)[C@@H]2CN(c3ccc(C#N)c(C(F)(F)F)c3)[C@@H](C(F)(F)F)O2)CC1 [Example 173]"
  numeric_value: 99.5

[ask] Under castrated male rats: levator ani muscle weight % relative to intact control group value of N#Cc1ccc(OC[C@@H]2CN(c3ccc(C#N)c(C(F)(F)F)c3)[C@@H](C(F)(F)F)O2)cc1 [Example 19] ?
[reply] 68.3

----------
System: castrated male rats
Test: Efficacy test in castrated male rat (Hershberger assay)
Type: in vivo, SD (Sprague-Dawley) rat
Conditions: castrated male SD rats, oral once a day for 14 days, 1 mg/kg
measured_parameter: levator ani muscle weight % relative to intact control group (%)
API: value field is a number in %; no unit string.

// worked examples, levator ani muscle weight % relative to intact control group included
- chem_smiles: "CC(=O)Nc1ccc(OC[C@@H]2CN(c3ccc(C#N)c(C(F)(F)F)c3)[C@@H](C(F)(F)F)O2)cc1"
  numeric_value: 61.1
- chem_smiles: "COC(=O)N1CCN(C(=O)[C@@H]2CN(c3ccc(C#N)c(C(F)(F)F)c3)[C@@H](C(F)(F)F)O2)CC1"
  numeric_value: 61.1
- chem_smiles: "N#Cc1ccc(OC[C@@H]2CN(c3ccc(C#N)c(C(F)(F)F)c3)[C@@H](C(F)(F)F)O2)cc1"
  numeric_value: 45.9
- chem_smiles: "N#Cc1ccc(OC[C@@H]2CN(c3ccc(C#N)c(C(F)(F)F)c3)[C@@H](C(F)(F)F)O2)cn1"
  numeric_value: 82.4

[ask] # lookup: levator ani muscle weight % relative to intact control group of `COC(=O)Nc1ccc(OC[C@@H]2CN(c3ccc(C#N)c(C(F)(F)F)c3)[C@@H](C(F)(F)F)O2)cc1`
[reply] 53.9

----------
Molecular target: androgen receptor (hAR) (Homo sapiens (Human), UniProt P10275)
Sequence (P10275 whole entry): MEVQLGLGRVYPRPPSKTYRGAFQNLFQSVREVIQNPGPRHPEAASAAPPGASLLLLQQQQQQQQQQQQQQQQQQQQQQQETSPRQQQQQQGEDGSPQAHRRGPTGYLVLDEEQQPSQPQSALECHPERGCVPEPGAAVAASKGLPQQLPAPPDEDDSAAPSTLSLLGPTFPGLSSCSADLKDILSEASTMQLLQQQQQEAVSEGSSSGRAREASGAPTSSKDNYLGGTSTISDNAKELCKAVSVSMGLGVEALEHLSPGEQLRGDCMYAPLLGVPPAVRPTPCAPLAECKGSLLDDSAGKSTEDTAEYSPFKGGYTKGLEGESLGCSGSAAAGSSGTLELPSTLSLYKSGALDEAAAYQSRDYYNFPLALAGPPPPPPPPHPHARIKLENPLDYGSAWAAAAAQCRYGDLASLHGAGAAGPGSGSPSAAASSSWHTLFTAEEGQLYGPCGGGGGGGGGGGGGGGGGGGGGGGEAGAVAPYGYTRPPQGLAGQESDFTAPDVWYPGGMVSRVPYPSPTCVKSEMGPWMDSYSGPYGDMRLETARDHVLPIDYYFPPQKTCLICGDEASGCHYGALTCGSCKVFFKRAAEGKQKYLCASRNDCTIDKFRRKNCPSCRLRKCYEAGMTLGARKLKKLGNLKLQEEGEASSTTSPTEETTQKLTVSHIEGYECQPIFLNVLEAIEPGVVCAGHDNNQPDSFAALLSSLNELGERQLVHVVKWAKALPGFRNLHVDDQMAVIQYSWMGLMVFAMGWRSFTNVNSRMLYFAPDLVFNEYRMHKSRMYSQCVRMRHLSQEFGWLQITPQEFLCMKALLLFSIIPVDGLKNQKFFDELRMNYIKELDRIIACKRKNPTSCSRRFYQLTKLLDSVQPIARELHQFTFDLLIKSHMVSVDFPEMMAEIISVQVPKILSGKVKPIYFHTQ
Assay: Test of transcriptional activity (hAR / ARE-Luc dual-luciferase assay in CHO cells)
Assay type: cell-based
Conditions: EC50 [nM] (mean ± SE), CHO cells with hAR and ARE-Luc, 24 hours; 10 nM DHT = 100%
EC50 under 20 nM gets 1, anything at or over 20 nM gets -1.

- chem_smiles: "N#Cc1ccc(N2C[C@@H](COc3ccc(N)cc3)O[C@@H]2C(F)(F)F)cc1C(F)(F)F"
  class_label: -1
- chem_smiles: "N#Cc1ccc(N2C[C@@H](COc3cc(F)c(F)cc3F)O[C@@H]2C(F)(F)F)cc1C(F)(F)F"
  class_label: 1
- chem_smiles: "N#Cc1ccc(N2C[C@@H](C(=O)N3CCN(C#N)CC3)O[C@@H]2C(F)(F)F)cc1C(F)(F)F"
  class_label: -1
- chem_smiles: "N#Cc1ccc(N2C[C@@H](COc3ccc(N4CCCC4=O)cc3)O[C@@H]2C(F)(F)F)cc1C(F)(F)F"
  class_label: -1

[ask] Check if EC50 falls below 20 nM for `COC(=O)N1CCN(C(=O)[C@@H]2CN(c3ccc(C#N)c(Cl)c3)[C@@H](C(F)(F)F)O2)CC1` .
[reply] -1

[ask] Continue with `N#Cc1ccc(N2C[C@@H](COc3ccc(NC(N)=O)cc3)O[C@@H]2C(F)(F)F)cc1C(F)(F)F`
[reply] 1

[ask] Continue with `N#Cc1ccc(NC(=O)[C@@H]2CN(c3ccc(C#N)c(C(F)(F)F)c3)[C@@H](C(F)(F)F)O2)cc1`
[reply] 1
